Attribution: PubChem BioAssay (NCI)

Measured GI50 of individual entries
Test system: UACC-257 melanoma
experiment: NCI tumour cell line growth inhibition, 48 h

API: value(readout= GI50, system= UACC-257 melanoma, query= `O=C1Nc2c(C(F)(F)F)cccc2[C@@]1(c1ccc(O)cc1)c1ccc(OC(F)(F)F)cc1` )
0.938 µM

###

Test system: SF-268 CNS
experiment: NCI tumour cell line growth inhibition, 48 h
result-type: TGI

Answered cases to consult:
CN(C)CCN=C1Nc2ccccc2C(=S)N2CSCC12 (stereo unspecified): > 100 µM
Oc1ccc(N=C2CCC(=C(c3ccccc3)c3ccc(Nc4ccc(O)cc4)cc3)CC2)cc1: > 100 µM
NCCN1C(=O)CN=C(c2ccc(Cl)cc2)c2cc(Cl)ccc21: 30.4 µM
Cc1cccc2c1N(C(=O)/C=C\C(=O)O)C(c1c(C)[nH]c3ccccc13)C2 (stereo unspecified): > 10 µM
COC(=O)/C=C(\C(=O)OC)c1c2c3c(cc(OC)c(OC)c3c3ccccc13)CCN2C: > 100 µM
COC1=CCC=C(C[C@@H]2NCCc3cc(OC)c(OC)cc32)C1: > 100 µM
CC(=O)Nc1ccc(-c2nc3ccccc3s2)cc1I: 97.4 µM
O=C1NC(=O)C(=C/C=C/c2ccccc2)C(=O)N1: 10.3 µM
CC(NC(=O)c1ccccc1)NC(=O)C(C)C(=O)Nc1ccccc1 (stereo unspecified): > 100 µM
O=CNc1ncn[nH]1: > 100 µM

In the following, a different molecule is considered.
Please report the recorded TGI for CC1CC(=O)Nc2ccccc2N1C(=O)CN1CCC(CCCCN(C)C)CC1 (stereo unspecified) .
> 100 µM

###

Tested on: A498 renal
experiment: NCI tumour cell line growth inhibition, 48 h
result-type: TGI (µM)
Report only the number, with the unit µM understood.

Answered cases to consult:
CCCCCCCCN(CCCCCCCC)CCCCCCNc1cc(OC)cc2cccnc12: 30.5
C/C(=C\CCc1ccoc1)CC/C=C(\C)CCCN1CCOCC1: 19.7
CN(Cc1cc(Br)cc(Br)c1O)Cc1cc(Br)cc(Br)c1O: 18.7

Please report the recorded TGI for `O=C(c1ccccc1)c1ccc(-n2c3ccccc3c3ccc4c(c32)C(=O)C=CC4=O)cc1` .
25.3

###

Reported GI50, MDA-MB-435.

Answered cases to consult:
C/C(=C\CCc1ccoc1)CC/C=C(\C)CCCN1CCOCC1: 3.48 µM
CCCCCCCCCCCCCC1=NCCN1CCO: 2.97 µM
Cl.Fc1c[c-]c(-c2ccccn2)c(F)c1.[Pt].c1ccc(P(c2ccccc2)C([PH+](c2ccccc2)c2ccccc2)[PH+](c2ccccc2)c2ccccc2)cc1: 3.4 µM
CN(Cc1cc(Br)cc(Br)c1O)Cc1cc(Br)cc(Br)c1O: 3.79 µM
Nc1nc2c(s1)CCc1c-2c(Br)n(Cc2ccccc2)c1Br: 8.57 µM
COc1ccc(C(=O)c2cc(OC)c(OC)c(OC)c2)cc1/C=C/C(=O)c1ccc(OC)c(OC)c1: 2.29 µM
COc1ccc2c(c1)[n+](=O)c(C(=O)c1ccco1)c(C(F)(F)F)n2[O-]: 3.08 µM
Cc1cc(O)ccc1C1=NN(c2ccc(S(C)(=O)=O)cc2)C(=O)CC1: 1.28 µM

Please report the recorded GI50 for `Cc1ccc(-c2cc3c(SCC(=O)Nc4cc(C(F)(F)F)ccc4Cl)nccn3n2)cc1` .
> 100 µM
